Values from PubChem BioAssay

- procedure.summary: differential killing of epithelial or mesenchymal cells, primary screen, imaging, PC-3E GFP, TEM4-18 mCherry, co-culture (AID 1345086);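 note: cells exposed to compound for 72 h before imaging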
- measurement.context: imaging cell counts, measured here: epithelial PC-3E GFP cell survival, at 1 µM
Please note: normalised cell number exactly at 0.9 is false (0). Only values below 0.9 get true (1).

Task item: I'd appreciate it if you could check whether CC(C)(CO)C(O)C(=O)NCCC(=O)NCCSSCCNC(=O)CCNC(=O)C(O)C(C)(C)CO (stereo not given) has normalised cell number smaller than 0.9.
Reply: true (1)

Task item: Lab note: confirm whether the reported normalised cell number for this compound is below 0.9, equality not counting. compound: Oc1ccc2ccccc2c1
Reply: true (1)

Task item: Regarding C[C@H](N[C@@H](CCc1ccccc1)C(=O)O)C(=O)N1Cc2ccccc2C[C@H]1C(=O)O , kindly confirm whether its normalised cell number is beneath 0.9.
Reply: false (0)

Task item: normalised cell number under 0.9? Item: CC(=O)OCC1O[C@@H](OC(C)=O)C(NC(=O)OCc2ccccc2)[C@@H](OC(C)=O)C1OC(C)=O (stereo not given in full)
Reply: false (0)

***
Task item: # strict comparison: is reported normalised cell number < 0.9? input = CC(=O)O[C@H]1CC[C@@]2(C)C(C[C@@H](OC(C)=O)[C@]3(C)C2CC[C@@]2(C)[C@H](c4ccoc4)OC(=O)[C@H]4O[C@]423)C1(C)C (stereo not given in full)
Reply: false (0)

Task item: Threshold test, normalised cell number < 0.9: CC(CCC(=O)O)[C@H]1CCC2C3C(=O)C[C@@H]4CC(=O)CC[C@]4(C)C3CC(=O)[C@@]21C (stereo not given in full)
Reply: false (0)

---

Readings of growth inhibition for the listed compounds
- procedure.summary: inhibition of 3D7 malaria parasite growth – strain 3D7 (AID 2306);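 note: 0% = DMSO wells and 100% = chloroquine plus artemisinin control wells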
- measurement.context: P. falciparum 3D7 erythrocytic growth, LDH absorbance, 72 h; at 2 µM; stronger effect = higher value
Report only the number, with the unit % understood.

# example entries with known answers
Task item: Answer with the recorded growth inhibition of COc1cc(Nc2nccc(-c3c(-c4cccc(NC(=O)c5c(F)cccc5F)c4)nn4ccccc34)n2)cc(OC)c1OC only.
Reply: 98

Task item: Using known records, supply growth inhibition for CN1CCN(CCCNCc2ccc(Nc3nccc(Nc4ccc(Oc5ccccc5)cc4)n3)cc2)CC1
Reply: 100

Task item: Complete the entry with growth inhibition for COc1ccc(NC(=O)c2ccc(-c3cccc(OCc4ccccc4)c3)cc2)cc1N1CCN(C)CC1
Reply: 85

Task item: Return growth inhibition for the following compound: Cc1ccc(C2CCN(CCCCNC(=O)c3ccc(NC(=O)c4ccc(Cl)cc4)cc3)CC2)c(OCC(F)(F)F)c1
Reply: 99

Task item: Answer with the recorded growth inhibition of O=C(/C=C/c1ccccc1O)N1CCC(CCN2CCC(c3c[nH]c4ccccc34)CC2)CC1 only.
Reply: 100

Task item: Indicate its recorded growth inhibition; the compound in question is CCn1c(-c2nonc2N)nc2c(-c3cccc(NC(=O)Nc4cccc(C(F)(F)F)c4)c3)ncc(OCCCN)c21
Reply: 95

Task item: Fill in growth inhibition for record Cc1cc(F)ccc1-c1nc(Nc2ccncc2)c2ccn(C)c2n1
Reply: 89

Task item: Determine from records and report growth inhibition for Cc1cccc2[nH]c(-c3cc(-c4cn[nH]c4)cnc3N)nc12
Reply: 101

Others:
Task item: Retrieve growth inhibition measured for CCn1c(-c2nonc2N)nc2c(-c3cccc(NC(=O)NCc4ccccc4)c3)ncc(OCCCN)c21 and print it.
Reply: 99

Task item: Return growth inhibition for the following compound: NS(=O)(=O)CCc1cccc(Nc2nccc(-c3c(-c4cccc(NC(=O)c5c(F)cccc5F)c4)nn4ccccc34)n2)c1
Reply: 98

Task item: Return value of growth inhibition for input Cc1[nH]c(/C=C2\C(=O)Nc3ccc(S(=O)(=O)Cc4c(Cl)cccc4Cl)cc32)c(C)c1C(=O)N1CCC[C@@H]1CN1CCCC1 , no commentary.
Reply: 85
